target-or-system: T1, human galectin-10-His (recombinant human galectin-10 with TEV-cleavable N-terminal His-tag) (human)
T1 construct: SEC-MALLS: dimer in solution; also called Gal10-His; humanGal10-His
T1 chain: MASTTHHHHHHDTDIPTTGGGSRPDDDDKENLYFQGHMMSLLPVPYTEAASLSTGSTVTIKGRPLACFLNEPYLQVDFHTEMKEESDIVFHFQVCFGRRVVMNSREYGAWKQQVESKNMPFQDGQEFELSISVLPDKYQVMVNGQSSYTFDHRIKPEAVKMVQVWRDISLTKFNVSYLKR
experiment-description: BLI OctetRed96, Fab on galectin-10-His
Measured koff accompanies every entry in the list below.
Please state the value followed by its unit.

6F05 Fab (Fab, V domains shown, VH on human CH1 constant domain (with part of the hinge region), VL on human lambda constant domain; also called 6F5; Fab 6F5) VH: QLQLVESGGGLVQPGGSLRLSCAASGFTFSSYAMSWVRQAPGKGLEWVSAINSGGGSTSYADSVKGRFTISRDNAKNTLYLQMNSLKPEDTAVYYCATPGDRLWYYRYDYWGQGTQVTVSS VL: QAGLTQPPSVSGTLGKAVTISCAGTSSDIGYGNYVSWYQQLPGTAPKLLIYKVSRRASGVPDRFSGSKSGNTASLSISGLQSEDEADYYCASYRYRNNVVFGGGTHLTVL :: 0.00356 s⁻¹
4E08 Fab (Fab, V domains shown, VH on human CH1 constant domain (with part of the hinge region), VL on human lambda constant domain; also called 4E8; Fab 4E8) VH: QVQRQESGPGLVKPSQTLSLTCTVSGGSITTSYYAWSWIRQPPGKGLEWMGVIASDGSTYYSPSLKSRTSISRDTSKNQFSLQLSSVTPEDTAVYYCALYIRGSSWSGWSAYDYWGQGTQVTVSS VL: QPVLNQPSAVSVSLGQTARITCQGGNFGYYYGSWYQQKPGQAPVLVIYKDSERPSGIPERFSGSSSGGTATLTISRAQAEDEADYYCQSADSSDNPVFGGGTHLTVL :: 0.00248 s⁻¹
1C09 Fab (Fab, V domains shown, VH on human CH1 constant domain (with part of the hinge region), VL on human lambda constant domain; also called 1C9; Fab 1C09) VH: QVQLVESGPGLVKPSQTLSLTCTVSGGSITTNSYYWSWIRQPPGKGLEWMGAIAYSGSTYYSPSLKSRTSISRDTSKNQFTLHLSSVTPEDTAVYYCARRPNWYRALDAWGQGTLVTVSS VL: NFMLTQPSAVSVSLGQTARITCQGANLGRYYGIWYQQKPGQAPVQVIYGDSNRPSGIPERFSGSSSGGTATLTISGAQAEDEADYYCQSYESSTSPVFGGGTHLTVL :: 0.000383 s⁻¹

Now consider a different binder.
Lookup: Could you share which koff value was measured for 1D11 Fab (Fab, V domains shown, VH on human CH1 constant domain (with part of the hinge region), VL on human lambda constant domain; also called Fab 1D11; Fab-1D11) VH: QVQLVESGGGLVQPGGSLRLSCAASGFTFDDYAMSWVRQAPGKGLEWVSGISWNGGSTYYAESMKGRFTISRDNAKNTLYLQMNSLKSEDTAVYYCAKDRNLGYRLGYPYDYWGQGTQVTVSS VL: QSVLTQPPSVSGSPGETVTISCAGTSSDVGYGNYVSWYQQLPGMAPRLLIYEVNKRASGITDRFSGSKSGNTASLTISGLQSEDEGDYYCASYRSSNNAVFGGGTHLTVL ?
Found: 0.000299 s⁻¹
